These entries and their values trace back to paper PMC11297931.

# target_system: Cdk7(S164A)/Cyclin H binary complex (human, UniProt P50613 2-346; P51946 1-323, S164A, phosphothreonine at 170)
# test_protocol: SPR
reported_endpoint: Kd (nM)

1. MBP-Mat1_(230-309) (domain or fragment) GQHISLAPIHKLEEALYEYQPLQIETYGPHVPELEMLGRLGYLNHVRAASPQDLAGGYTSSLACHRALQDAFSGLFWQPS: 10.8
